conditions: 298.15 K; 101.33 kPa; Liquid; Pycnometric method
ENDPOINT: mass density (kg/m3)
The reply should be a number in kg/m3, with the unit left off.

Previously resolved entries follow.
{"columns": ["MOLECULE", "mass density / kg/m3"],
 "data": [
  ["CCCC[n+]1ccc(C)cc1.O=S(=O)([N-]S(=O)(=O)C(F)(F)F)C(F)(F)F", 1413],
  ["CCCC[n+]1cccc(C)c1.F[B-](F)(F)F [1-butyl-3-methylpyridinium tetrafluoroborate]", 1177],
  ["CC[n+]1ccccc1.O=S(=O)([N-]S(=O)(=O)C(F)(F)F)C(F)(F)F [1-ethylpyridinium bis[(trifluoromethyl)sulfonyl]imide]", 1532],
  ["CCCC[n+]1ccccc1.O=S(=O)([N-]S(=O)(=O)C(F)(F)F)C(F)(F)F [1-butylpyridinium bis[(trifluoromethyl)sulfonyl]imide]", 1456],
  ["CCCC[n+]1cccc(C)c1.O=S(=O)([O-])C(F)(F)F [1-butyl-3-methylpyridinium trifluoromethanesulfonate]", 1297],
  ["CCCCCC[n+]1ccccc1.O=S(=O)([N-]S(=O)(=O)C(F)(F)F)C(F)(F)F [1-hexylpyridinium bis(trifluromethylsulfonyl)imide]", 1382],
  ["CCCC[n+]1cccc(C)c1.O=S(=O)([N-]S(=O)(=O)C(F)(F)F)C(F)(F)F", 1425]
]}

For the next question, use this molecule.
The molecule listed as CCCC[n+]1ccccc1C.O=S(=O)([N-]S(=O)(=O)C(F)(F)F)C(F)(F)F shows mass density equal to 1476

====

details: 298.15 K; 101.33 kPa; Liquid; Capillary tube (Ostwald / Ubbelohde) method
# reported viscosity; entries follow
Write the answer as a number in mPa·s, unit excluded.

# example entries with known answers
{"columns": ["MOLECULE", "ENDPOINT", "NUMERIC VALUE"],
 "data": [
  ["CC[n+]1ccccc1.O=S(=O)([N-]S(=O)(=O)C(F)(F)F)C(F)(F)F [1-ethylpyridinium bis[(trifluoromethyl)sulfonyl]imide]", "viscosity", 39.76],
  ["CCCC[n+]1ccccc1C.O=S(=O)([N-]S(=O)(=O)C(F)(F)F)C(F)(F)F", "viscosity", 95.73],
  ["CCCC[n+]1cccc(C)c1.F[B-](F)(F)F [1-butyl-3-methylpyridinium tetrafluoroborate]", "viscosity", 169.51]
]}

Record CCCC[n+]1cccc(C)c1.O=S(=O)([O-])C(F)(F)F [1-butyl-3-methylpyridinium trifluoromethanesulfonate] . Reported viscosity: 126.57

====

settings: 313.15 K; 101.33 kPa; Liquid; Capillary tube (Ostwald / Ubbelohde) method
ENDPOINT: viscosity (mPa·s)
Give the number; mPa·s is assumed, so skip it.

In the examples that follow, each entry is paired with its recorded viscosity.
{"columns": ["MOLECULE", "UNIT DESCRIPTOR", "NUMERIC VALUE"],
 "data": [
  ["CCCC[n+]1cccc(C)c1.O=S(=O)([N-]S(=O)(=O)C(F)(F)F)C(F)(F)F", "mPa·s", 33.98],
  ["CCCC[n+]1cccc(C)c1.O=S(=O)([O-])C(F)(F)F [1-butyl-3-methylpyridinium trifluoromethanesulfonate]", "mPa·s", 60.98],
  ["CCCC[n+]1ccc(C)cc1.O=S(=O)([N-]S(=O)(=O)C(F)(F)F)C(F)(F)F", "mPa·s", 29.81],
  ["CCCC[n+]1cccc(C)c1.F[B-](F)(F)F [1-butyl-3-methylpyridinium tetrafluoroborate]", "mPa·s", 73.35],
  ["CCCC[n+]1ccccc1.O=S(=O)([N-]S(=O)(=O)C(F)(F)F)C(F)(F)F [1-butylpyridinium bis[(trifluoromethyl)sulfonyl]imide]", "mPa·s", 32.37],
  ["CC[n+]1ccccc1.O=S(=O)([N-]S(=O)(=O)C(F)(F)F)C(F)(F)F [1-ethylpyridinium bis[(trifluoromethyl)sulfonyl]imide]", "mPa·s", 23.39]
]}

Record CCCCCC[n+]1ccccc1.O=S(=O)([N-]S(=O)(=O)C(F)(F)F)C(F)(F)F [1-hexylpyridinium bis(trifluromethylsulfonyl)imide] . Reported viscosity: 131.32

The measured viscosity associated with CCCC[n+]1ccccc1C.O=S(=O)([N-]S(=O)(=O)C(F)(F)F)C(F)(F)F reads 45.83

====

Measured surface tension liquid-gas, listed per entry.
details: 293.15 K, Ring tensiometer
Please state the figure in mN/m; there is no need to write the unit.

{"columns": ["COMPOUND", "surface tension liquid-gas / mN/m"],
 "data": [
  ["CCCC[n+]1ccccc1C.O=S(=O)([N-]S(=O)(=O)C(F)(F)F)C(F)(F)F", 36.5]
]}

Reported surface tension liquid-gas for CCCCCC[n+]1ccccc1.O=S(=O)([N-]S(=O)(=O)C(F)(F)F)C(F)(F)F [1-hexylpyridinium bis(trifluromethylsulfonyl)imide] was 34.2

Entry CCCC[n+]1ccccc1.O=S(=O)([N-]S(=O)(=O)C(F)(F)F)C(F)(F)F [1-butylpyridinium bis[(trifluoromethyl)sulfonyl]imide] ; surface tension liquid-gas = 35

# surface tension liquid-gas of CCCC[n+]1ccc(C)cc1.O=S(=O)([N-]S(=O)(=O)C(F)(F)F)C(F)(F)F = 35.4

====

details: 323.15 K; 101.33 kPa; Liquid; Pycnometric method
// values below are reported mass density
Unit kg/m3 implied. Number only.

# example entries with known answers
{"columns": ["COMPOUND", "mass density (kg/m3)"],
 "data": [
  ["CCCC[n+]1ccccc1C.O=S(=O)([N-]S(=O)(=O)C(F)(F)F)C(F)(F)F", 1435],
  ["CCCC[n+]1cccc(C)c1.O=S(=O)([N-]S(=O)(=O)C(F)(F)F)C(F)(F)F", 1416],
  ["CCCC[n+]1ccccc1.O=S(=O)([N-]S(=O)(=O)C(F)(F)F)C(F)(F)F [1-butylpyridinium bis[(trifluoromethyl)sulfonyl]imide]", 1433]
]}

CCCC[n+]1ccc(C)cc1.O=S(=O)([N-]S(=O)(=O)C(F)(F)F)C(F)(F)F yielded mass density of 1405

The recorded mass density for entry CC[n+]1ccccc1.O=S(=O)([N-]S(=O)(=O)C(F)(F)F)C(F)(F)F [1-ethylpyridinium bis[(trifluoromethyl)sulfonyl]imide] equals 1515

Form field mass density, entry CCCCCC[n+]1ccccc1.O=S(=O)([N-]S(=O)(=O)C(F)(F)F)C(F)(F)F [1-hexylpyridinium bis(trifluromethylsulfonyl)imide] : 1362

Consider CCCC[n+]1cccc(C)c1.F[B-](F)(F)F [1-butyl-3-methylpyridinium tetrafluoroborate] . Its measured mass density is 1160

Input CCCC[n+]1cccc(C)c1.O=S(=O)([O-])C(F)(F)F [1-butyl-3-methylpyridinium trifluoromethanesulfonate] . Output mass density: 1251

====

settings: 323.15 K; 101.33 kPa; Liquid; Capillary tube (Ostwald / Ubbelohde) method
Each entry below lists one item and its recorded viscosity value.
Numeric only. Scale: mPa·s

{"columns": ["COMPOUND", "UNIT DESCRIPTOR", "viscosity"],
 "data": [
  ["CCCC[n+]1cccc(C)c1.F[B-](F)(F)F [1-butyl-3-methylpyridinium tetrafluoroborate]", "mPa·s", 46.59],
  ["CCCC[n+]1ccccc1.O=S(=O)([N-]S(=O)(=O)C(F)(F)F)C(F)(F)F [1-butylpyridinium bis[(trifluoromethyl)sulfonyl]imide]", "mPa·s", 22.75],
  ["CCCC[n+]1cccc(C)c1.O=S(=O)([O-])C(F)(F)F [1-butyl-3-methylpyridinium trifluoromethanesulfonate]", "mPa·s", 37.94]
]}

viscosity in this record for CC[n+]1ccccc1.O=S(=O)([N-]S(=O)(=O)C(F)(F)F)C(F)(F)F [1-ethylpyridinium bis[(trifluoromethyl)sulfonyl]imide] : 17.61

Looking up CCCC[n+]1ccccc1C.O=S(=O)([N-]S(=O)(=O)C(F)(F)F)C(F)(F)F , I see its viscosity listed as 29.48

// viscosity value for CCCC[n+]1ccc(C)cc1.O=S(=O)([N-]S(=O)(=O)C(F)(F)F)C(F)(F)F : 20.23

Value of measured viscosity for the entry CCCC[n+]1cccc(C)c1.O=S(=O)([N-]S(=O)(=O)C(F)(F)F)C(F)(F)F : 25.68

Noted for CCCCCC[n+]1ccccc1.O=S(=O)([N-]S(=O)(=O)C(F)(F)F)C(F)(F)F [1-hexylpyridinium bis(trifluromethylsulfonyl)imide] : its viscosity reads 83.66

====

conditions: 318.15 K; 101.33 kPa; Liquid; Pycnometric method
Recorded mass density for the following compounds
Provide only the numeric value, understood in kg/m3.

# mass density of CC[n+]1ccccc1.O=S(=O)([N-]S(=O)(=O)C(F)(F)F)C(F)(F)F [1-ethylpyridinium bis[(trifluoromethyl)sulfonyl]imide] = 1519

Lookup result for CCCCCC[n+]1ccccc1.O=S(=O)([N-]S(=O)(=O)C(F)(F)F)C(F)(F)F [1-hexylpyridinium bis(trifluromethylsulfonyl)imide] ; measured mass density: 1368

// mass density lookup, compound = CCCC[n+]1ccccc1C.O=S(=O)([N-]S(=O)(=O)C(F)(F)F)C(F)(F)F , result: 1440
